biological target: human NCX1 (Homo sapiens, UniProt P32418); construct: expressed in transfected cells; assay: NCX1 inhibition, reverse mode (Ca2+ influx into cells), FLIPR Fluo-4 assay; type: cell-based; details: inhibition of NCX1 in reverse mode (Ca2+ influx into cells); read-out: NCX1rv IC50
pIC50: −log10 of the molar value.
QUANTITY: pIC50

COMPOUND	TARGET	pIC50
Cn1nccc1C(=O)NCc1cnc(Oc2ccc3c(c2)CCC(c2ccccc2)O3)s1 (stereo not shown)	human NCX1 (Homo sapiens, UniProt P32418)	6.52
C[C@H](NC(=O)c1cnc(Oc2ccc3c(c2)CCC(c2ccccc2)O3)s1)c1nc(C2CC2)cs1 (stereo partly shown)	human NCX1 (Homo sapiens, UniProt P32418)	6.40

(I) Cc1ccccc1C1CCc2cc(Oc3ncc(C(=O)NCCc4c(C)noc4C)s3)ccc2O1 (stereo not shown)
(II) CCC(C)[C@H](NC(=O)c1cnc(Oc2ccc3c(c2)CC[C@@H](c2ccccc2)O3)s1)C(=O)OC (stereo partly shown)
Which of the two items, I and II , has the greater recorded pIC50? I would appreciate it if you answered with the label of your choice.
I
